Literature survey of IC50 (system: Ubiquitin carboxyl-terminal hydrolase 7 (Homo sapiens, UniProt Q93009)).

Would you please look over these solved cases?
CC(F)(F)Cn1ccc(=O)n(Cc2cc3nccc(-c4cc(Cl)cc5c4N([C@H]4CCNC4)CCC5)c3s2)c1=O    < 10 nM
CC(Cc1ccccc1)C(=O)N1CCC(O)(Cn2cnc3cc(Cl)ccc3c2=O)CC1 (centres unmarked)    200 to 1000 nM
CCC(O)c1cc2nccc(-c3cc(Cl)cc4c3O[C@@H](c3ocnc3CN3CCCC3)C4)c2s1 (some centres unmarked)    < 1000 nM
CCC1(CC)Cc2nccc(-c3cc(Cl)cc4c3O[C@@H](c3onc5c3CNCC5)C4)c2C1    1000 to 10000 nM
c1ccc(OCCCON=C2c3ccccc3-c3nn4nnnc4nc32)cc1 (mixture of isomers)    1780 nM
Cc1cc(Cl)cc(-c2ccnc3cc(CN4C(=O)C5CC5C4=O)sc23)c1CN1CCCNCC1C (centres unmarked)    < 10 nM
CC(C)S(=O)(=O)NCCc1cc2nccc(-c3cc(Cl)cc4c3O[C@@H](C(=O)N3CCNCC3)C4)c2s1    < 1000 nM

--- query ---
Input: Please tell me the measured IC50 for CCC(O)c1ccc2c(-c3cc(Cl)cc4c3O[C@@H](C(=O)N3CCNCC3)C4)ccnc2c1 (some centres unmarked) ; system: Ubiquitin carboxyl-terminal hydrolase 7 (Homo sapiens, UniProt Q93009).
Output: 1000 to 10000 nM

* * *

Here's a roundup of IC50 values tested on Ubiquitin carboxyl-terminal hydrolase 7 (Homo sapiens, UniProt Q93009), taken from various published works.

Reference set, count: 7
Cc1ccc2[nH]ncc2c1-c1n[nH]c2c1CN(C#N)C2    < 10000 nM
CC1CC(=O)N(Cc2cc3nccc(-c4cc(Cl)cc5c4O[C@@H](C(=O)N4CCNCC4)C5)c3s2)C1 (some centres unmarked)    < 1000 nM
N#Cc1cc2c(c(-c3ccnc4cc(CO)sc34)c1)O[C@@H](C(=O)N1CCNCC1)C2    < 1000 nM
CC(=O)NCc1nn(-c2ccccc2)c2c1CN(C#N)C2    10000 to 30000 nM
C[C@H]1CNC[C@H](C)N1Cc1c(Cl)cc(Cl)cc1-c1ccnc2cc(CN3C(=O)CCC3=O)sc12    < 10 nM
Cc1cc(Cl)cc(-c2ncnc3cc(CN4C(=O)c5ccccc5C4=O)sc23)c1CC1CNCCO1 (centres unmarked)    < 10 nM
O=c1ccn(CC2(C(F)F)CC2)c(=O)n1Cc1cc2nccc(-c3cc(Cl)cc4c3N([C@H]3CCNC3)CCC4)c2s1    < 10 nM

Input: Enter measured IC50, system Ubiquitin carboxyl-terminal hydrolase 7 (Homo sapiens, UniProt Q93009), for the molecule shown: O=C(Cc1ccccc1)N1CCC(O)(Cn2cnc3cc(Cl)ccc3c2=O)CC1
Output: > 10000 nM

* * *

pIC50: −log10 of the molar value.
The molecules below each have a reported pIC50 tested on Ubiquitin carboxyl-terminal hydrolase 7 (Homo sapiens, UniProt Q93009); the values come from various publications.

// worked examples, pIC50 included
N#Cc1ccc(-c2n[nH]c3c2CN(C#N)C3)cc1    > 5.00
N#CC1(Cn2ccc(=O)n(Cc3cc4nccc(-c5cc(Cl)cc6c5N([C@H]5CCNC5)CCC6)c4s3)c2=O)CC1    > 8.00
Cc1cc(Cl)cc(-c2ccnc3cc(CN4C(=O)C5CC5C4=O)sc23)c1C(=O)N1[C@@H](C)CNC[C@@H]1C (stereo partly shown)    7.00 to 8.00

// switching to the query molecule
Input: Fill in pIC50 for record Cc1cc(Cl)cc(-c2ccnc3cc(Cn4c(=O)ccn(CC(F)(F)F)c4=O)sc23)c1CN1CCNC(=O)C1
Output: < 7.00

* * *

We begin with IC50 values for Ubiquitin carboxyl-terminal hydrolase 7 (Homo sapiens, UniProt Q93009), as collected from the published literature.

Example compounds with recorded IC50:
Cc1cc(Cl)cc(-c2ncnc3cc(CN4C(=O)COC4=O)sc23)c1C[C@@H]1CNCC(C)(C)O1    < 10 nM
CC(C)Oc1ccc(F)cc1-c1n[nH]c2c1CN(C#N)C2    < 10000 nM
C[C@@H]1CN(C(=O)C2Cc3cc(Cl)cc(-c4ccnc5[nH]ccc45)c3O2)CCN1 (some centres unmarked)    1000 to 10000 nM
O=C(c1ccc2c(Cl)c3c(nc2c1)CCCC3)N1CCC(O)(Cn2cnc3cc(Cl)ccc3c2=O)CC1    > 10000 nM
O=c1c2ccc(Cl)cc2ncn1CC1(O)CCN(C(=S)NCc2ccccc2)CC1    > 10000 nM
Cc1cnn(Cc2cc3nccc(-c4cc(Cl)cc5c4N([C@@H]4CNC6(CCC6)C4)C[C@H]4C[C@@H]54)c3s2)c(=O)c1    < 10 nM
CN1CCC(=O)N(Cc2cc3nccc(-c4cc(Cl)cc5c4O[C@@H](C(=O)N4CCNCC4)C5)c3s2)C1=O    < 1000 nM

Now look at this one.
Input: Give reported IC50 value for O=C1CCC(=O)N1Cc1cc2nccc(-c3cc(Cl)cc4c3O[C@@H](c3onc5c3CNCC5)C4)n2n1
Output: < 1000 nM

* * *

pIC50: −log10 of the molar value.
Compiled pIC50 measurements on Ubiquitin carboxyl-terminal hydrolase 7 (Homo sapiens, UniProt Q93009) taken from the literature.

Worked examples, 4 compounds total:
O=C(C1Cc2cc(Cl)cc(-c3ccnc4c3CCCC4)c2O1)N1CCNCC1 (centres unmarked)    > 6.00
O=c1ccn(CC(F)F)c(=O)n1Cc1cc2nccc(-c3cc(Cl)cc4c3N(C3CNC3)CCC4)c2s1    > 8.00
O=C(C1Cc2cc(Cl)cc(-c3ccnc4[nH]ccc34)c2O1)N1CCC(O)(c2ccccn2)CC1 (centres unmarked)    5.00 to 6.00
O=C1OC[C@@H](C(F)(F)F)N1Cc1cc2nccc(-c3cc(Cl)cc4c3N([C@@H]3CNC5(CCC5)C3)CCC4)c2s1    7.00 to 8.00

Input: Give me measured pIC50, please, for this compound: Cc1cc(Cl)cc(-c2ccnc3cc(CN4C(=O)CCC4=O)sc23)c1CN1CCNC[C@H]1C
Output: 7.00 to 8.00

Input: Return the recorded pIC50 value; entry: Nc1ccc2c(c1)NCN(CC1(O)CCN(C(=O)CCc3ccccc3)CC1)C2=O
Output: < 5.00

Input: Respond only with pIC50 recorded for CNCCNC(=O)[C@H]1Cc2cc(Cl)cc(-c3ccnc4cc(CO)sc34)c2O1
Output: > 6.00

Input: For the compound CN(C)C1CCc2nn(C)c([C@H]3Cc4cc(Cl)cc(-c5ccnc6cc(CO)sc56)c4O3)c2C1 (some centres unmarked) , report pIC50.
Output: > 6.00

* * *

Recorded IC50 for compounds tested on Ubiquitin carboxyl-terminal hydrolase 7 (Homo sapiens), drawn from a number of studies.

Consider the reported IC50 for these compounds:
N#Cc1ccc2nccc(-c3cc(Cl)cc4c3O[C@@H](c3onc5c3CNCC5)C4)c2c1    1000 to 10000 nM
Cc1cc2ncnc(-c3cc(Cl)cc4c3O[C@@H](c3onc5c3CNCC5)C4)c2o1    < 1000 nM
CC(C)(C)c1cnn(Cc2cc3nccc(-c4cc(C#N)cc5c4N([C@@H]4CN[C@@H](CO)C4)CCO5)c3s2)c(=O)c1    < 10 nM

Let us examine a further case.
Input: Fill: IC50 (Ubiquitin carboxyl-terminal hydrolase 7 (Homo sapiens)) for this compound O=C(C[C@H](O)c1ccccc1)N1CCC(O)(Cn2cnc3cc(Cl)ccc3c2=O)CC1
Output: > 10000 nM

* * *

Here we gather pIC50 data for Ubiquitin carboxyl-terminal hydrolase 7 (Homo sapiens, UniProt Q93009) reported by several publications.
pIC50: −log10 of the molar value.

Input: State measured pIC50 of the compound Cc1cc(Cl)cc(-c2ccnc3cc(CN4C(=O)C5CC5C4=O)sc23)c1CC1COCCN1 (stereo not shown) with Ubiquitin carboxyl-terminal hydrolase 7 (Homo sapiens, UniProt Q93009).
Output: < 7.00

Input: Give reported pIC50 for CC(O)Cc1cc2nccc(-c3cc(Cl)cc4c3O[C@@H](C(=O)N3CCNCC3)C4)c2s1 (stereo partly shown) (Ubiquitin carboxyl-terminal hydrolase 7 (Homo sapiens, UniProt Q93009))
Output: > 6.00

Input: Find the measured pIC50 of Cc1cc(Cl)cc(-c2ncnc3cc(CN4C(=O)CN(C)C4=O)sc23)c1C[C@@H]1CNCC(C)(C)O1 with Ubiquitin carboxyl-terminal hydrolase 7 (Homo sapiens, UniProt Q93009) as test system.
Output: > 8.00

Input: Supply pIC50 measured with Ubiquitin carboxyl-terminal hydrolase 7 (Homo sapiens, UniProt Q93009) for Cc1cc(Cl)cc(-c2ccnc3cc(CN4C(=O)CCC4=O)sc23)c1CN1CCN(CCO)C[C@@H]1C .
Output: > 8.00

Input: Please tell me the measured pIC50 for N#Cc1ccc2c(-c3cc(Cl)cc4c3O[C@@H](c3onc5c3CNCC5)C4)ccnc2c1 ; system: Ubiquitin carboxyl-terminal hydrolase 7 (Homo sapiens, UniProt Q93009).
Output: > 6.00

Input: Find pIC50 for CC(=O)NCCc1cc2nccc(-c3cc(Cl)cc4c3O[C@@H](C(=O)N3CCNCC3)C4)c2s1 on Ubiquitin carboxyl-terminal hydrolase 7 (Homo sapiens, UniProt Q93009) and write it down.
Output: > 6.00

Input: GET pIC50 where system = Ubiquitin carboxyl-terminal hydrolase 7 (Homo sapiens, UniProt Q93009) and item = Clc1cc2c(c(-c3ccnc4ccnn34)c1)OC(c1onc3c1CNCC3)C2 (stereo not shown)
Output: 5.00 to 6.00

Input: Find the measured pIC50 of Cn1nc2c(c1[C@H]1Cc3cc(Cl)cc(-c4ccnc5cc(CO)sc45)c3O1)CC(N1CCC1)CC2 (stereo partly shown) with Ubiquitin carboxyl-terminal hydrolase 7 (Homo sapiens, UniProt Q93009) as test system.
Output: > 6.00

Input: State measured pIC50 of the compound N#CN1Cc2[nH]nc(-c3cccc(NS(=O)(=O)C4CC4)c3)c2C1 with Ubiquitin carboxyl-terminal hydrolase 7 (Homo sapiens, UniProt Q93009).
Output: > 5.00

Input: State pIC50 (Ubiquitin carboxyl-terminal hydrolase 7 (Homo sapiens, UniProt Q93009)) of CC1(C)OC(=O)C(Cc2cc3nccc(-c4cc(Cl)cc5c4N([C@@H]4CNC6(CCC6)C4)CCC5)c3s2)C(=O)O1 .
Output: 6.00 to 7.00
